Conditions: in cyclohexanone, 293.35 K
VALUE_KIND: solubility (mole fraction)

Recorded solubility (mole fraction) (compound O=C(O)c1cccc(C(=O)O)c1 ): 0.00239

###

Conditions: in 1,2-diethoxyethane, 322.75 K
VALUE_KIND: solubility (mole fraction)
Lab note: jot down the number only; don't add units.

solubility (mole fraction) measured on O=C(O)c1cccc(C(=O)O)c1 = 0.00376

###

Settings: in 1,2-diethoxyethane, 303.25 K
VALUE_KIND: solubility (mole fraction)
Lab note: write the figure by itself, no unit.

Recorded result, O=C(O)c1ccccc1C(=O)O , solubility (mole fraction): 0.0177

###

Measured solubility (mole fraction), listed per entry.
Details: in 1,2-diethoxyethane, 293.15 K
Answer as a number with no unit attached.

- STRUCTURE_STRING: "O=C(O)c1ccccc1C(=O)O"
  solubility (mole fraction): 0.0154

// next entry
// field: solubility (mole fraction); key: O=C(O)c1ccc(C(=O)O)cc1 ; value = 0.000214

###

Conditions: in acetophenone, 323.15 K
VALUE_KIND: solubility (mole fraction)
The answer should be written as a number, with no unit following it.

Measured solubility (mole fraction), O=C(O)c1ccc(C(=O)O)cc1 : 3.47e-05

###

Conditions: in THF, 329.05 K
VALUE_KIND: solubility (mole fraction)
Reply: number alone, nothing else.

Lookup result for O=C(O)c1ccccc1C(=O)O ; measured solubility (mole fraction): 0.0949

###

Details: in THF, 328.75 K
VALUE_KIND: solubility (mole fraction)
Lab note: jot down the number only; don't add units.

# compound O=C(O)c1cccc(C(=O)O)c1 ; its solubility (mole fraction) = 0.0196

###

Conditions: in 1,2-diethoxyethane, 293.3 K
VALUE_KIND: solubility (mole fraction)
Returns: the value as a bare number; no unit string appended.

// solubility (mole fraction) lookup, compound = O=C(O)c1cccc(C(=O)O)c1 , result: 0.00265

###

Conditions: in acetophenone, 323.35 K
VALUE_KIND: solubility (mole fraction)
Lab note: jot down the number only; don't add units.

The molecule listed as O=C(O)c1ccccc1C(=O)O shows solubility (mole fraction) equal to 0.00933

###

Conditions: in cyclohexanone, 333.4 K
VALUE_KIND: solubility (mole fraction)
Answer using only a numeral; do not append any unit.

So for O=C(O)c1ccc(C(=O)O)cc1 , the logged solubility (mole fraction) turned out to be 0.000385

###

Details: in THF, 293.15 K
VALUE_KIND: solubility (mole fraction)
# print the numeric value only

Reported solubility (mole fraction) ( O=C(O)c1ccc(C(=O)O)cc1 ) = 0.000882

###

Settings: in THF, 322.85 K
VALUE_KIND: solubility (mole fraction)

The compound O=C(O)c1cccc(C(=O)O)c1 showed solubility (mole fraction) equal to 0.0185

###

Conditions: in cyclohexanone, 303.15 K
VALUE_KIND: solubility (mole fraction)
Kindly provide the number alone.

Sample records with solubility (mole fraction):
- STRUCTURE_STRING: "O=C(O)c1ccccc1C(=O)O"
  QUANTITATIVE_RESULT: 0.0212
- STRUCTURE_STRING: "O=C(O)c1ccc(C(=O)O)cc1"
  QUANTITATIVE_RESULT: 0.000183

The recorded solubility (mole fraction) for entry O=C(O)c1cccc(C(=O)O)c1 equals 0.00302
